System: human CD33 V73A (human, UniProt P20138 18-364)
Sequence (P20138 18-364 V73A limits assumed): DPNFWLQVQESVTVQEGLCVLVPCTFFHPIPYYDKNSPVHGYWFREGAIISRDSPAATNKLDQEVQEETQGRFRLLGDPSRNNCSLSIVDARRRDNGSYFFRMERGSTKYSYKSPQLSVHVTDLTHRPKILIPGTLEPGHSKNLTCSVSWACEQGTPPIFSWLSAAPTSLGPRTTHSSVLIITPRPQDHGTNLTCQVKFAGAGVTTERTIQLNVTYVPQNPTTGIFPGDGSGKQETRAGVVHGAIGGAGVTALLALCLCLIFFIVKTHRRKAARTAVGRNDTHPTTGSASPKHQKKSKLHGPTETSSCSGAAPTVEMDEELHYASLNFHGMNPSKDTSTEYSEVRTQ
Measurement notes: alanine scan, flow cytometry;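 note: HEK293-T cells transiently expressing single-residue alanine mutants of CD33 (alanine swapped to serine), antibody binding read by fluorescence in duplicate, background-subtracted, expressed relative to wild-type CD33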
Observed property: Mean % WT Binding

Binder	Readout value
Refmab #1 (antibody, V domains shown, Full-length format is human IgG1 (Absolute Antibody Ab00283-10.0); The alanine scan used IgG or Fab; also called hP67.6) VH: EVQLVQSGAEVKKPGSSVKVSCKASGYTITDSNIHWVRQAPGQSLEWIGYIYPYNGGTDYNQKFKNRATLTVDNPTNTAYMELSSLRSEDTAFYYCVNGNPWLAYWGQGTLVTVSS VL: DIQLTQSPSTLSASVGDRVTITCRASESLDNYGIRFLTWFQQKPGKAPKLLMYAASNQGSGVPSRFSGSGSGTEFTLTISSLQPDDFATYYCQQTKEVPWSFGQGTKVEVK	73.6 % WT

// Refmab #3 (antibody, V domains shown, Full-length format is human IgG1 Fc silent (PG-LALA); The alanine scan used IgG or Fab) VH: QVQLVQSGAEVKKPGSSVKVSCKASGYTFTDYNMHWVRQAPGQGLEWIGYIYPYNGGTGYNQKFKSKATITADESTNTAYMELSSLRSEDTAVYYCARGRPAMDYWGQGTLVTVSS VL: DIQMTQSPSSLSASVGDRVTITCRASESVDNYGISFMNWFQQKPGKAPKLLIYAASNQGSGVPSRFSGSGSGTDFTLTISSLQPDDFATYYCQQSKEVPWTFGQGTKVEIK : Mean % WT Binding value = 149 % WT

// Refmab #2 (antibody, V domains shown, Full-length format is human IgG1 Fc silent (PG-LALA); The alanine scan used IgG or Fab) VH: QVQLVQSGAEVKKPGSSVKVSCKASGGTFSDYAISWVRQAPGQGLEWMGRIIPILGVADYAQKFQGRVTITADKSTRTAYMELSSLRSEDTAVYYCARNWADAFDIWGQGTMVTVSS VL: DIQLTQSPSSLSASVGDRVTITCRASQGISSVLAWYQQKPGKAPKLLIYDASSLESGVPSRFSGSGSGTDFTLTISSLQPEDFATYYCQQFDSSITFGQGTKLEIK : Mean % WT Binding value = 99.1 % WT
